Data provenance is patent US20260083864A1.

- assay_details: Water solubility in aqueous buffer
- test_context: aqueous buffer 10 mM Tris-HCl, pH 7.4, 20° C.
observation_type: Solubility

compound="CCOCCOCCOCCOc1ccc(CC(C(=O)O)N2CCN(CC(=O)[O-])CCN(CC(=O)[O-])CCN(CC(=O)[O-])CC2)cc1.[Gd+3] (stereo not shown) [Example 10]" assay_result=">272 mM"
compound="CCOCCOCCOc1ccc(CCC[C@H](C(=O)O)N2CCN([C@H](CO)C(=O)[O-])CCN([C@H](CO)C(=O)[O-])CCN([C@H](CO)C(=O)[O-])CC2)cc1.[Gd+3] [Example 19]" assay_result=">410 mM"
compound="CCOCCOCCOc1ccc(CC(C(=O)O)N2CCN(CC(=O)[O-])CCN(C(C)C(=O)[O-])CCN(CC(=O)[O-])CC2)cc1.[Gd+3] (single isomer, unassigned) [Example 5]" assay_result=">59 mM"
compound="CCOCCOCCOCCOc1ccc(CC(C(=O)O)N2CCN(CC(=O)[O-])CCN(C(CO)C(=O)[O-])CCN(CC(=O)[O-])CC2)cc1.[Gd+3] (stereo not shown) [Example 42]" assay_result=">81 mM"
compound="CCOCCOCCOCCOc1ccc(CC(C(=O)O)N2CCN(CC(=O)[O-])CCN(C(COC)C(=O)[O-])CCN(CC(=O)[O-])CC2)cc1.[Gd+3] (stereo not shown) [Example 13]" assay_result="67 mM"
compound="CCOCCOCCOc1ccc(CC(C(=O)O)N2CCN(C(CO)C(=O)[O-])CCN(C(CO)C(=O)[O-])CCN(C(CO)C(=O)[O-])CC2)cc1.[Gd+3] (stereo not shown) [Example 22]" assay_result=">308 mM"
compound="CCOCCOCCOc1ccc(CC(C(=O)O)N2CCN(C(CCO)C(=O)[O-])CCN(C(CCO)C(=O)[O-])CCN(C(CCO)C(=O)[O-])CC2)cc1.[Gd+3] (stereo not shown) [Example 37]" assay_result="18 mM"
compound="CCOc1ccc(CCOCC(C(=O)O)N2CCN(CC(=O)[O-])CCN(CC(=O)[O-])CCN(CC(=O)[O-])CC2)cc1.[Gd+3] (stereo not shown) [Example 1]" assay_result=">258 mM"
compound="CCCC(C(=O)[O-])N1CCN(CC(=O)[O-])CCN(C(Cc2ccc(OCC)cc2)C(=O)O)CCN(CC(=O)[O-])CC1.[Gd+3] (stereo not shown) [Example 30]" assay_result=">35 mM"
compound="CCCCOc1ccc(CC(C(=O)O)N2CCN(CC(=O)[O-])CCN(CC(=O)[O-])CCN(CC(=O)[O-])CC2)cc1.[Gd+3] (stereo not shown) [Example 14]" assay_result="5 mM"
compound="CCCCOc1ccc(CCCC[C@@H](C(=O)O)N2CCN([C@@H](CO)C(=O)[O-])CCN([C@@H](CO)C(=O)[O-])CCN([C@@H](CO)C(=O)[O-])CC2)cc1.[Gd+3] [Example 9]" assay_result="2 mM"
compound="CCOCCOCCOc1ccc(CCC[C@@H](C(=O)O)N2CCN(C(CO)C(=O)[O-])CCN(C(CO)C(=O)[O-])CCN(C(CO)C(=O)[O-])CC2)cc1.[Gd+3] (mixture of isomers) [Example 21]" assay_result=">368 mM"
compound="CCOCCOCCOc1ccc(CC(C(=O)O)N2CCN(CC(=O)[O-])CCN(CC(=O)[O-])CCN(CC(=O)[O-])CC2)nc1.[Gd+3] (stereo not shown) [Example 23]" assay_result=">241 mM"
compound="CCOCCOCCOc1ccc(CC(C(=O)[O-])N2CCN(CC(=O)[O-])CCN(C(CC)C(=O)O)CCN(CC(=O)[O-])CC2)cc1.[Gd+3] (stereo not shown) [Example 43]" assay_result=">209 mM"
compound="COCC(C(=O)O)N1CCN(CC(=O)[O-])CCN(C(Cc2ccc(OCC(F)(F)C(F)F)cc2)C(=O)[O-])CCN(CC(=O)[O-])CC1.[Gd+3] (stereo not shown) [Example 45]" assay_result=">63 mM"
compound="CCCOc1ccc(CC(C(=O)O)N2CCN(CC(=O)[O-])CCN(CC(=O)[O-])CCN(CC(=O)[O-])CC2)cc1.[Gd+3] (stereo not shown) [Example 48]" assay_result="16 mM"
compound="CCOCCOc1ccc(CC(C(=O)O)N2CCN(CC(=O)[O-])CCN(CC(=O)[O-])CCN(CC(=O)[O-])CC2)cc1.[Gd+3] (stereo not shown) [Example 32]" assay_result=">198 mM"
compound="CCOc1ccc(CC(CN(CCN(CC(=O)[O-])CC(=O)[O-])CC(=O)[O-])N(CC(=O)[O-])CC(=O)[O-])cc1.[Gd+3].[Na+].[Na+] (stereo not shown) [RC1, gadoxetate disodium, reference compound]" assay_result=">250 mM"
compound="O=C([O-])CN1CCN(CC(=O)[O-])CCN(C(Cc2ccc(OCC(F)(F)C(F)F)cc2)C(=O)O)CCN(CC(=O)[O-])CC1.[Gd+3] (stereo not shown) [Example 46]" assay_result=">263 mM"
compound="CCOCCOCCOc1ccc(CCC[C@@H](C(=O)O)N2CCN([C@H](CO)C(=O)[O-])CCN([C@@H](CO)C(=O)[O-])CCN([C@@H](CO)C(=O)[O-])CC2)cc1.[Gd+3] [Example 50]" assay_result=">19 mM"
compound="CCOCCOc1ccc(CC(C(=O)O)N2CCN(CC(=O)[O-])CCN(C(CC)C(=O)[O-])CCN(CC(=O)[O-])CC2)cc1.[Gd+3] (single isomer, unassigned) [Example 7]" assay_result=">243 mM"
compound="CCOCCOCCOc1ccc(CCCC(C(=O)O)N2CCN(CC(=O)[O-])CCN(CC(=O)[O-])CCN(CC(=O)[O-])CC2)cc1.[Gd+3] (stereo not shown) [Example 25]" assay_result="306 mM"

* * *

- assay_details: Water solubility in aqueous buffer
- test_context: aqueous buffer 10 mM Tris-HCl, pH 7.4, 20° C.
- Method: The solid compounds were added stepwise to the buffer solution. More substance is added once all the suspended material is dissolved until an equilibrium between undissolved and dissolved substance is reached. The suspension was mixed using a shaker (Heidolph Reax 2000) and treated 5 min in an ultrasound bath (Bandelin, Sonorex Super RK255H).
Reported Solubility values are given for each entry in this list.
observation_type: Solubility

compound="O=C([O-])CN1CCN(C(Cc2ccc(OCC(F)(F)C(F)F)cc2)C(=O)O)CCN(CC(=O)[O-])CCN([C@@H](CO)C(=O)[O-])CC1.[Gd+3] (mixture of isomers)" assay_result=">29 mM"
compound="CCOCCOc1ccc(CC(C(=O)O)N2CCN(CC(=O)[O-])CCN(C(CC)C(=O)[O-])CCN(CC(=O)[O-])CC2)cc1.[Gd+3] (single isomer, unassigned) [Example 8]" assay_result="117 mM"
compound=CCOCCOCCOc1ccc(CCC[C@@H](C(=O)O)N2CCN([C@@H](CO)C(=O)[O-])CCN([C@H](CO)C(=O)[O-])CCN([C@@H](CO)C(=O)[O-])CC2)cc1.[Gd+3] assay_result=">164 mM"
compound=CCOCCOCCOc1ccc(CCC[C@H](C(=O)O)N2CCN([C@@H](CO)C(=O)[O-])CCN([C@@H](CO)C(=O)[O-])CCN([C@@H](CO)C(=O)[O-])CC2)cc1.[Gd+3] assay_result=">354 mM"
compound="CCOCCOCCOc1cc(CC(C(=O)O)N2CCN(CC(=O)[O-])CCN(CC(=O)[O-])CCN(CC(=O)[O-])CC2)cc(OCCOCCOCC)c1.[Gd+3] (centres unmarked)" assay_result=">255 mM"

* * *

- Test system: freshly isolated rat hepatocytes
- assay_details: Uptake into freshly isolated rat hepatocytes
- test_context: 100 μmol Gd/L, 10 min, 37° C., relative to RC1 (Gd-EOB-DTPA)
We begin with a simple list: items and their reported Uptake rat hepatocytes.
observation_type: Uptake rat hepatocytes

compound="CCOCCOCCOc1ccc(C[C@@H](C(=O)O)N2CCN(CC(=O)[O-])CCN(CC(=O)[O-])CCN(CC(=O)[O-])CC2)cc1.[Gd+3] [Example 3]" observation_type="Uptake rat hepatocytes" assay_result="47 % of RC1"
compound="CCCCOc1ccc(CCCC[C@@H](C(=O)O)N2CCN([C@@H](CO)C(=O)[O-])CCN([C@@H](CO)C(=O)[O-])CCN([C@@H](CO)C(=O)[O-])CC2)cc1.[Gd+3] [Example 9]" observation_type="Uptake rat hepatocytes" assay_result="54 % of RC1"
compound="O=C([O-])CN1CCN(CC(=O)[O-])CCN(C(Cc2ccc(OCC(F)(F)C(F)F)cc2)C(=O)O)CCN(CC(=O)[O-])CC1.[Gd+3] (stereo not drawn) [Example 46]" observation_type="Uptake rat hepatocytes" assay_result="106 % of RC1"
compound="CCCCOc1ccc(CC(C(=O)O)N2CCN(CC(=O)[O-])CCN(CC(=O)[O-])CCN(CC(=O)[O-])CC2)cc1.[Gd+3] (stereo not drawn) [Example 14]" observation_type="Uptake rat hepatocytes" assay_result="96 % of RC1"
compound="CCOCCOCCOCCOc1ccc(CC(C(=O)O)N2CCN(CC(=O)[O-])CCN(C(COC)C(=O)[O-])CCN(CC(=O)[O-])CC2)cc1.[Gd+3] (stereo not drawn) [Example 13]" observation_type="Uptake rat hepatocytes" assay_result="49 % of RC1"
compound="CCOCCOCCOc1ccc(CCC[C@@H](C(=O)O)N2CCN(CC(=O)[O-])CCN(CC(=O)[O-])CCN(CC(=O)[O-])CC2)cc1.[Gd+3] [Example 26]" observation_type="Uptake rat hepatocytes" assay_result="77 % of RC1"
